Target: RETN-His (#S0995)
Assay: Octet BLI
RECORDED METRIC: pKd
// returns pKd (minus log10 of molar concentration), number only

Use the examples below as a reference point.
[
  {
    "BINDER": "5A2-LS-2H10 (antibody, V domains shown) VH: QVQLVQSGAEGRKPGSSVKVSCKVSGDTFSSYAISWVRQAPGQGLEWMGGIIPIFGAADYAQKFKGRVTISADESTSTAYMELSSLRSEDTAVYYCAKGPDYYGSFDPWGQGTLITVSS VL: NFMLTQPASVSGSPGQSITISCTGSSSDVGGYNYVTWYQQHPGKAPQLIIYDVTKRPSGVSNRFSGSKSGNSASLTISGLQAEDEADYYCSSYSSSTFYVFGTGTKVTVLR",
    "pKd": 9.27
  },
  {
    "BINDER": "5A2-LS-2D07 (antibody, V domains shown) VH: QVQLVQSGAEGRKPGSSVKVSCKVSGDTFSSYAISWVRQAPGQGLEWMGGIIPIFGAADYAQKFKGRVTISADESTSTAYMELSSLRSEDTAVYYCAKGPDYYGSFDPWGQGTLITVSS VL: QSALTQPASVSGSPGQSVTISCTGTSSDIGRYNRVSWYQHHPGKAPKLIIYDVSNRPSGVSNRFSGSKSGNTASLTISGLQAGDESDYYCSAYTRSSTWVFGGGTKLTVLR",
    "pKd": 9.31
  },
  {
    "BINDER": "5A2-LS-2B02 (antibody, V domains shown) VH: QVQLVQSGAEGRKPGSSVKVSCKVSGDTFSSYAISWVRQAPGQGLEWMGGIIPIFGAADYAQKFKGRVTISADESTSTAYMELSSLRSEDTAVYYCAKGPDYYGSFDPWGQGTLITVSS VL: DIQMTQSPGTLSLSAGERATLSCRASQSVRGSYLAWYQQKPGQAPRLLIYGTSSRAPGIPDRFSGSGSGTDFTLTISSLEPEDFAVYYCQQRGDWLYTFGQGTKVEIKR",
    "pKd": 9.34
  },
  {
    "BINDER": "5A2-LS-2G03 (antibody, V domains shown) VH: QVQLVQSGAEGRKPGSSVKVSCKVSGDTFSSYAISWVRQAPGQGLEWMGGIIPIFGAADYAQKFKGRVTISADESTSTAYMELSSLRSEDTAVYYCAKGPDYYGSFDPWGQGTLITVSS VL: DIQMTQSPSSLSASVGDRVTITCQASQHVSSYLNWYQQKPGKAPKLLIYAASNLQSGVPSRFSGSGSGTDFTLTISSLQPDDFATYYCQQYDSYSSVYTFGPGTKLDIKR",
    "pKd": 9.51
  },
  {
    "BINDER": "5A2-LS-2F11 (antibody, V domains shown) VH: QVQLVQSGAEGRKPGSSVKVSCKVSGDTFSSYAISWVRQAPGQGLEWMGGIIPIFGAADYAQKFKGRVTISADESTSTAYMELSSLRSEDTAVYYCAKGPDYYGSFDPWGQGTLITVSS VL: DIQMTQSPSSLSASVGDRVTITCRASQSIGTYLNWYQQKPGKAPKLLIYDASSLEDGVPSRFSGSGSGTDFTLTISSLQPEDSATYYCQQSYTMPLYTFGQGTKLEIKR",
    "pKd": 9.35
  }
]

Form field pKd, entry 5A2 (antibody, V domains shown) VH: QVQLVQSGAEGRKPGSSVKVSCKVSGDTFSSYAISWVRQAPGQGLEWMGGIIPIFGAADYAQKFKGRVTISADESTSTAYMELSSLRSEDTAVYYCAKGPDYYGSFDPWGQGTLITVSS VL: DIQMTQSPSFLSASVGDRVTITCRASQYIGTYLAWYQQQPGKAPKLLIYGASILQNGVPSRFSGSASGTEFTLTISSLQPEDFATYYCQQADSFPLTFGGGTKVDIKR : 8.93

Form field pKd, entry 5A2-LS-2E10 (antibody, V domains shown) VH: QVQLVQSGAEGRKPGSSVKVSCKVSGDTFSSYAISWVRQAPGQGLEWMGGIIPIFGAADYAQKFKGRVTISADESTSTAYMELSSLRSEDTAVYYCAKGPDYYGSFDPWGQGTLITVSS VL: DIQMTQSPSSLSASVGDRVTITCRTSQTITNYLNWYQQKPGRAPKLLIFDASNLETGVPSRFSGSGSGTDFTLTISSLQPEDFATYFCQQSYNPGYTFGQGTKLEIKR : 9.38

The measurements presented in this section are drawn from patent US20250019430A1.
